Molecular target: T45G yeast alcohol dehydrogenase (ADH1) (Saccharomyces cerevisiae, UniProt P00330, T46G)
Sequence (P00330 2-348 T46G): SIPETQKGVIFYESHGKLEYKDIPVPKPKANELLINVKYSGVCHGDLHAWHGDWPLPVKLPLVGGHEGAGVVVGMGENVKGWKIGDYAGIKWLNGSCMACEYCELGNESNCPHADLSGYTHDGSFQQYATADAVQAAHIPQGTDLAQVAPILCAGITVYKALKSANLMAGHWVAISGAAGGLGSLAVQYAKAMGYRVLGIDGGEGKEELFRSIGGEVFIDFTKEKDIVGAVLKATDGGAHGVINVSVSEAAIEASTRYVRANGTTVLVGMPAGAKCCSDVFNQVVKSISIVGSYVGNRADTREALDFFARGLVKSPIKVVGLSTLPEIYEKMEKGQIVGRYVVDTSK
Settings: read-out: Kiq, NADH; pH 8.96, 30 °C
PROPERTY NAME: pKi
API: returns pKi as number; meaning -log10 of concentration in mol/L.

Inquiry: Please state recorded pKi (tested on T45G yeast alcohol dehydrogenase (ADH1) (Saccharomyces cerevisiae, UniProt P00330, T46G)) of NC(=O)C1=CN([C@@H]2O[C@H](COP(=O)(O)OP(=O)(O)OC[C@H]3O[C@@H](n4cnc5c(N)ncnc54)[C@H](O)[C@@H]3O)[C@@H](O)[C@H]2O)C=CC1 [NADH]
Reply text: 3.35

* * *

Target: T45G yeast alcohol dehydrogenase (ADH1) (Saccharomyces cerevisiae, UniProt P00330, T46G)
Conditions: read-out: Kia, NAD+; pH 5.60, 30 °C
PROPERTY NAME: pKi
API: returns pKi as number; meaning -log10 of concentration in mol/L.

Inquiry: Tell me the measured pKi of NC(=O)c1ccc[n+]([C@@H]2O[C@H](COP(=O)([O-])OP(=O)(O)OC[C@H]3O[C@@H](n4cnc5c(N)ncnc54)[C@H](O)[C@@H]3O)[C@@H](O)[C@H]2O)c1 , please.
Reply text: 3.10

* * *

Target: T45G yeast alcohol dehydrogenase (ADH1) (Saccharomyces cerevisiae, UniProt P00330, T46G)
Conditions: read-out: Kia, NAD+; pH 8.07, 30 °C
PROPERTY NAME: pKi
API: returns pKi as number; meaning -log10 of concentration in mol/L.

Inquiry: Please state recorded pKi (tested on T45G yeast alcohol dehydrogenase (ADH1) (Saccharomyces cerevisiae, UniProt P00330, T46G)) of NC(=O)c1ccc[n+]([C@@H]2O[C@H](COP(=O)([O-])OP(=O)(O)OC[C@H]3O[C@@H](n4cnc5c(N)ncnc54)[C@H](O)[C@@H]3O)[C@@H](O)[C@H]2O)c1
Reply text: 2.95

* * *

Molecular target: T45G yeast alcohol dehydrogenase (ADH1) (Saccharomyces cerevisiae, UniProt P00330, T46G)
Settings: read-out: Kiq, NADH; pH 6.06, 30 °C
PROPERTY NAME: Ki (µM)
State the answer as a number, implicitly in µM.

Inquiry: Tell me the measured Ki of NC(=O)C1=CN([C@@H]2O[C@H](COP(=O)(O)OP(=O)(O)OC[C@H]3O[C@@H](n4cnc5c(N)ncnc54)[C@H](O)[C@@H]3O)[C@@H](O)[C@H]2O)C=CC1 [NADH] , please.
Reply text: 8.6

* * *

Molecular target: T45G yeast alcohol dehydrogenase (ADH1) (Saccharomyces cerevisiae, UniProt P00330, T46G)
Details: read-out: Kiq, NADH; pH 5.52, 30 °C
PROPERTY NAME: pKi
API: returns pKi as number; meaning -log10 of concentration in mol/L.

Inquiry: Tell me the measured pKi of NC(=O)C1=CN([C@@H]2O[C@H](COP(=O)(O)OP(=O)(O)OC[C@H]3O[C@@H](n4cnc5c(N)ncnc54)[C@H](O)[C@@H]3O)[C@@H](O)[C@H]2O)C=CC1 , please.
Reply text: 5.42

* * *

Biological target: T45G yeast alcohol dehydrogenase (ADH1) (Saccharomyces cerevisiae, UniProt P00330, T46G)
Conditions: read-out: Kiq, NADH; pH 7.00, 30 °C
PROPERTY NAME: pKi
API: returns pKi as number; meaning -log10 of concentration in mol/L.

Inquiry: Tell me the measured pKi of NC(=O)C1=CN([C@@H]2O[C@H](COP(=O)(O)OP(=O)(O)OC[C@H]3O[C@@H](n4cnc5c(N)ncnc54)[C@H](O)[C@@H]3O)[C@@H](O)[C@H]2O)C=CC1 , please.
Reply text: 4.42

Numbers sourced from paper PMC8530938.
